tested on: HeLa cells; test: Cell cycle assay in HeLa cells; type: cell-based, human; settings: HeLa cells, 50 nM, 48 hours; percentage of cells in phase, average of replicates
In the oligonucleotide strings, read from the 5' end, every base follows the letter of its sugar. An asterisk marks phosphorothioate; unmarked linkages are phosphodiester. Other units and linkages are bracketed, terminal groups are in braces. A string of capitals states the bases alone. e = 2'-O-(2-methoxyethyl) (MOE); [5mC] = 5-methylcytosine; d = 2'-deoxy (DNA)
Measured Attribute: % cells in cell cycle phase: subG1 (%)
All answers are understood in %, so give the number only.

Supply recorded % cells in cell cycle phase: subG1 for 327905 (antisense e[5mC]*eA*eG*eA*e[5mC]*eT*e[5mC]*e[5mC]*eG*eG*eT*eG*eG*eA*eA*eT*eG*eA*eA*eG*eG*eA) [compound 327905] here.
2.1

Supply recorded % cells in cell cycle phase: subG1 for 328403 (antisense eA*eG*eG*e[5mC]*e[5mC]*dT*dA*dT*dT*d[5mC]*d[5mC]*dT*dG*dT*dA*eG*e[5mC]*eA*eA*eA) [compound 328403] here.
1.1

Supply recorded % cells in cell cycle phase: subG1 for 328383 (eA*eG*eA*eG*eG*dG*dG*dA*dG*dA*d[5mC]*dG*dA*dG*dA*eG*e[5mC]*eA*e[5mC]*eT) [compound 328383] here.
1.3

Supply recorded % cells in cell cycle phase: subG1 for 327902 (antisense eG*eG*e[5mC]*eT*eG*eT*e[5mC]*eA*eA*eT*eT*e[5mC]*eA*eT*eA*eG*eG*eT*e[5mC]*eA*eG) [compound 327902] here.
2.4

* * *

test system: PPARγ; experiment: PPARγ mRNA expression in adipocytes (real-time PCR); type: cell-based, human; conditions: differentiating adipocytes transfected with oligomeric compound; Table 75
In the oligonucleotide strings, read from the 5' end, every base follows the letter of its sugar. An asterisk marks phosphorothioate; unmarked linkages are phosphodiester. Other units and linkages are bracketed, terminal groups are in braces. A string of capitals states the bases alone. e = 2'-O-(2-methoxyethyl) (MOE); [5mC] = 5-methylcytosine
Measured Attribute: PPAR gamma mRNA

Supply recorded PPAR gamma mRNA for 328113 (antisense e[5mC]*eA*eA*eA*eA*eA*eT*eT*eA*eT*e[5mC]*eA*eG*e[5mC]*e[5mC]*eA*eG*eT*eT*eT*eA) [compound 328113] here.
85 percentage of untreated control (UTC)

Supply recorded PPAR gamma mRNA for 344613 (ACACCAAUGCCCUAGGGGAUGCG; anti-miR; all 2'-MOE, all phosphorothioate, methylation of C and T or U not given here) [compound 344613] here.
57 percentage of untreated control (UTC)

Supply recorded PPAR gamma mRNA for 328107 (antisense e[5mC]*eT*eG*eT*eG*eA*e[5mC]*eT*eT*e[5mC]*eT*e[5mC]*eT*eA*eT*e[5mC]*eT*eG*e[5mC]*e[5mC]*eT) [compound 328107] here.
71 percentage of untreated control (UTC)

* * *

Give TG (triglyceride accumulation) for every item shown.
tested on: adipocytes; test: Triglyceride accumulation assay in adipocytes; assay type: cell-based, human; settings: differentiating adipocytes transfected with oligomeric compound; Table 75
In the oligonucleotide strings, read from the 5' end, every base follows the letter of its sugar. An asterisk marks phosphorothioate; unmarked linkages are phosphodiester. Other units and linkages are bracketed, terminal groups are in braces. A string of capitals states the bases alone. e = 2'-O-(2-methoxyethyl) (MOE); [5mC] = 5-methylcytosine

Supply recorded TG (triglyceride accumulation) for 346687 (AGCAAGCCCAGACCGCAAAAAG; all 2'-MOE, all phosphorothioate, methylation of C not given here) [compound 346687] here.
55 percentage of untreated control (UTC)

Supply recorded TG (triglyceride accumulation) for 327895 (antisense eA*e[5mC]*eA*eA*eA*e[5mC]*eA*e[5mC]*e[5mC]*eA*eT*eT*eG*eT*e[5mC]*eA*e[5mC]*eA*e[5mC]*eT*e[5mC]*e[5mC]*eA) [compound 327895] here.
76 percentage of untreated control (UTC)

Supply recorded TG (triglyceride accumulation) for 327940 (antisense eG*eA*eA*e[5mC]*eA*eG*eG*eT*eA*eG*eT*e[5mC]*eT*eG*eA*eA*e[5mC]*eA*e[5mC]*eT*eG*eG*eG) [compound 327940] here.
62 percentage of untreated control (UTC)

Supply recorded TG (triglyceride accumulation) for 341798 (antisense GCAUUAUUACUCACGGUACGA; all 2'-MOE, all phosphorothioate, methylation of C and T or U not given here) [compound 341798] here.
62 percentage of untreated control (UTC)

Supply recorded TG (triglyceride accumulation) for 340354 (antisense UCAGACCGAGACAAGUGCAAUG; all 2'-MOE, all phosphorothioate, methylation of C and T or U not given here) [compound 340354] here.
64 percentage of untreated control (UTC)
